IC50 tested on Acetylcholinesterase (Homo sapiens, UniProt P22303): recorded values
Sequence (P22303 whole entry): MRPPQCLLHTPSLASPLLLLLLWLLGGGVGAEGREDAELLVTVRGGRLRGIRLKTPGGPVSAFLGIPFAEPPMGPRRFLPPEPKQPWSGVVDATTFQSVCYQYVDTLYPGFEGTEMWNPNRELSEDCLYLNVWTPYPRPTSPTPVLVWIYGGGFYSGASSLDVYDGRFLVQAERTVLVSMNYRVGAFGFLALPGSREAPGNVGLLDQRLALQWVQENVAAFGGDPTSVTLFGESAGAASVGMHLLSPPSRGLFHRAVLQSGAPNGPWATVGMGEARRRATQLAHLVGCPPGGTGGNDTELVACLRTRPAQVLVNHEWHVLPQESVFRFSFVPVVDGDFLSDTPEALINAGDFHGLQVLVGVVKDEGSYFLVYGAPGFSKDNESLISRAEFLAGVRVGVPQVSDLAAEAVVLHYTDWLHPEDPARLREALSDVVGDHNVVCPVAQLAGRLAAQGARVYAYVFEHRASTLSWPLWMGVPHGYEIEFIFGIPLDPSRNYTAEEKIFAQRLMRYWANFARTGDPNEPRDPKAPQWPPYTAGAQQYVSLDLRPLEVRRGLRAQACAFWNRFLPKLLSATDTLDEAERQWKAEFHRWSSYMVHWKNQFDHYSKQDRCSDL
MEASURED_PARAMETER: IC50

INSERT INTO measurements (compound, assay_target, measured_parameter, measurement) VALUES
  ('C/C=C(\C)C(=O)N[C@@H]1[C@H](OC(C)=O)[C@@H]2CC[C@H]3C4=CC[C@H]([C@H](C)N(C)C)[C@@]4(C)CC[C@@H]3[C@@]2(C)C[C@@H]1O', 'Acetylcholinesterase (Homo sapiens, UniProt P22303)', 'IC50', '61.7 µM'),
  ('C/C=C(\C)C(=O)N[C@@H]1[C@H](O)C2CC[C@H]3C4=CC[C@H]([C@H](C)N(C)C)[C@@]4(C)CC[C@@H]3[C@@]2(C)C[C@@H]1O (stereo partly drawn)', 'Acetylcholinesterase (Homo sapiens, UniProt P22303)', 'IC50', '33.1 µM'),
  ('CO[C@@H]1CC2=CC[C@@H]3[C@H](CC[C@]4(C)C([C@H](C)N(C)C)=CC[C@@H]34)[C@@]2(C)C[C@@H]1O', 'Acetylcholinesterase (Homo sapiens, UniProt P22303)', 'IC50', '251 µM');

----------
target: UniProt:P22303; assay: Compound was tested for the in silico inhibition of acetylcholinesterase
MEASURED_PARAMETER: IC50 (µM)

INSERT INTO measurements (molecule, value_units, measurement) VALUES
  ('C/C=C(\C)C(=O)N[C@@H]1C=C2CC[C@H]3C4=CC[C@H]([C@H](C)N(C)C)[C@@]4(C)CC[C@@H]3[C@@]2(C)CC1', 'µM', 7.76),
  ('CC(=O)N(C)[C@@H](C)[C@H]1CC[C@H]2[C@@H]3CC=C4C[C@@H](N(C)C)CC[C@]4(C)[C@H]3CC[C@]12C', 'µM', 20),
  ('CN[C@H]1CC[C@@]2(C)[C@@H](CC[C@@H]3[C@@H]2CC[C@]2(C)C([C@H](C)N(C)C)=CC[C@@H]32)C1', 'µM', 20.4),
  ('C/C=C(\C)C(=O)NC1=CC[C@@]2(C)[C@@H](CC[C@H]3C4CC[C@H]([C@H](C)N(C)C)[C@@]4(C)CC[C@@H]32)C1=O (stereo partly specified)', 'µM', 13.8),
  ('C[C@@H]([C@H]1CC[C@H]2[C@@H]3CC[C@H]4C(=O)C(NC(=O)c5ccccc5)=CC[C@]4(C)[C@H]3CC[C@]12C)N(C)C', 'µM', 5.25),
  ('CC(=O)N(C)[C@@H](C)[C@H]1CC[C@H]2[C@@H]3CC[C@H]4C[C@@H](N(C)C)CC[C@]4(C)[C@H]3CC[C@]12C', 'µM', 50.1);

----------
target: Acetylcholinesterase (Homo sapiens)
Just a reminder that ties go to not fulfilled: only IC50 strictly below 6 µM counts as fulfilled.

INSERT INTO results (molecule, class_label) VALUES
  ('C/C(=C\C(=O)N(C)[C@H]1CC[C@@]2(C)[C@@H](CC[C@@H]3[C@@H]2CC[C@]2(C)[C@@H]([C@H](C)N(C)C)CC[C@@H]32)C1)C(C)C', 'not fulfilled'),
  ('C/C=C(\C)C(=O)N[C@H]1CC[C@@]2(C)C(=CC[C@H]3C4=CC[C@H]([C@H](C)N(C)C)[C@@]4(C)CC[C@@H]32)C1=O', 'fulfilled'),
  ('CC(=O)O[C@H]1[C@@H](NC(=O)c2ccccc2)[C@@H](O)C[C@]2(C)[C@H]3CC[C@]4(C)[C@@H]([C@H](C)N(C)C)CC[C@H]4[C@@H]3CC[C@@H]12', 'not fulfilled'),
  ('C[C@@H]([C@H]1CC[C@H]2[C@@H]3CC[C@H]4C[C@@H](N(C)C(=O)/C=C/c5ccccc5)CC[C@]4(C)[C@H]3CC[C@]12C)N(C)C [SALIGCINNAMIDE]', 'not fulfilled');

----------
pIC50: −log10 of the molar value.
Reported pIC50 values, Acetylcholinesterase (Homo sapiens).
MEASURED_PARAMETER: pIC50

INSERT INTO measurements (chemical_structure, assay_target, measurement) VALUES
  ('CC(=O)N[C@H]1CC[C@@]2(C)[C@@H](CC[C@@H]3[C@@H]2CC[C@]2(C)[C@@H]([C@H](C)N(C)C)CC[C@@H]32)C1', 'Acetylcholinesterase (Homo sapiens)', 4.16),
  ('C/C=C(\C)C(=O)N[C@H]1CC[C@@]2(C)C(=CC[C@H]3[C@@H]4CC[C@H]([C@H](C)N(C)C)[C@@]4(C)CC[C@@H]32)[C@H]1O', 'Acetylcholinesterase (Homo sapiens)', 4.52),
  ('C[C@H](NC=O)[C@H]1CC[C@H]2[C@@H]3CC[C@H]4C[C@@H](N(C)C)CC[C@]4(C)[C@H]3CC[C@]12C', 'Acetylcholinesterase (Homo sapiens)', 5.19);

----------
In this section we review reported pIC50 values for a set of compounds.
target: Acetylcholinesterase (Homo sapiens); experiment: Compound was tested for the in silico inhibition of acetylcholinesterase
pIC50: −log10 of the molar value.
MEASURED_PARAMETER: pIC50

INSERT INTO measurements (compound, measurement) VALUES
  ('CC(=O)O[C@@H]1C2CC[C@H]3C4CC=C([C@H](C)N(C)C)[C@@]4(C)CC[C@@H]3[C@@]2(C)CC[C@@H]1NC(=O)C=C(C)C (some centres not stated)', 5.28),
  ('C/C=C(\C)C(=O)N[C@@H]1[C@H](OC(C)=O)[C@@H]2CC[C@@H]3[C@H](CC[C@]4(C)[C@@H]([C@H](C)N(C)C)CC[C@@H]34)[C@@]2(C)C[C@@H]1O', 3.74),
  ('C/C=C(\C)C(=O)N[C@H]1CC[C@@]2(C)C(=CC[C@H]3[C@@H]4CC[C@H]([C@H](C)N(C)C)[C@@]4(C)CC[C@@H]32)C1=O', 5.15),
  ('C[C@@H]([C@H]1CC[C@H]2[C@@H]3CC[C@H]4C[C@@H](NC(=O)c5ccccc5)CC[C@]4(C)[C@H]3CC[C@]12C)N(C)C [EPIPACHYSAMINE D]', 4.54),
  ('C[C@@H]([C@H]1CC[C@H]2[C@@H]3CC=C4C[C@@H](N(C)C)CC[C@]4(C)[C@H]3CC[C@]12C)N(C)C', 4.40),
  ('C/C=C(\C)C(=O)N[C@@H]1C=C2CC[C@H]3[C@@H]4CC[C@H]([C@H](C)N(C)C)[C@@]4(C)CC[C@@H]3[C@@]2(C)C[C@@H]1O', 4.80),
  ('C[C@@H]([C@H]1CC[C@H]2[C@@H]3CC[C@H]4C[C@@H](NC(=O)c5ccccc5)[C@@H](O)C[C@]4(C)[C@H]3CC[C@]12C)N(C)C', 4.11),
  ('CO[C@H]1CC[C@@]2(C)C(=CC[C@@H]3[C@@H]2CC[C@]2(C)C([C@H](C)N(C)C=O)=CC[C@@H]32)C1', 4.31),
  ('CC(=O)N(C)[C@H]1CC[C@@]2(C)[C@@H](CC[C@@H]3[C@@H]2CC[C@]2(C)[C@@H]([C@H](C)N(C)C)CC[C@@H]32)C1', 4.15),
  ('C/C=C(\C)C(=O)N[C@H]1C(OC(C)=O)C[C@@]2(C)C(CC[C@H]3C4CC=C([C@H](C)N(C)C)[C@@]4(C)CC[C@@H]32)[C@H]1OC(C)=O (some centres not stated)', 4.30),
  ('CN[C@@H](C)C1=CC[C@H]2[C@@H]3CC=C4C[C@@H](OC)CC[C@]4(C)[C@H]3CC[C@]12C', 4.08),
  ('CO[C@H]1CC[C@@]2(C)C(=CC[C@H]3[C@@H]4CC[C@H]([C@H](C)N(C)C)[C@@]4(C)CC[C@@H]32)C1', 4.37);
